# assayName: in vitro
# conditionDetails: DNG CC50
Reported CC50 by item:
propertyMeasured: CC50 (µM)

Cc1cc(C)c2nc(C)cc(NCc3ccco3)c2c1 : 50.2
Cc1ccc2nc(C)cc(N3CCC(C)CC3)c2c1 : 72.9
CCOC(=O)c1ccc(Nc2cc(C)nc3c2ccc2ccccc23)cc1 : 72.9
CCOC(=O)c1cnc2c(OC)cccc2c1NCc1ccccc1 : 43.5
Cc1cc(C)c2nc(C)cc(Nc3ccc(O)cc3)c2c1 : 39.3
COc1ccc2nc(C)cc(Nc3ccc(I)cc3)c2c1 : 35.5
COC(=O)c1ccc(Nc2cc(C)nc3cc(Cl)ccc23)cc1 : 53.7
CCOC(=O)c1cnc2c(C)cc(C)cc2c1NCCCN(C)C : 23.4
Cc1ccc2nc(C)cc(NCc3ccccc3)c2c1 : 56.4
CCOC(=O)c1cnc2ccc(OCC)cc2c1NCc1ccco1 : 47.3
CCOC(=O)c1cnc2c(OC)cccc2c1NCC(C)O (centres unmarked) : 34.6
CCOC(=O)c1cnc2c(C)cc(C)cc2c1NCc1ccco1 : 37.2
c1coc(CNc2c3c(nc4ccccc24)CCC3)c1 : 58.5
Cc1ccc(Nc2c3c(nc4ccc(C)cc24)CCC3)cc1 : 43.8
CCOc1ccc2nc(C)cc(Nc3ccc(Cl)cc3)c2c1 : 21.2
COc1ccccc1Nc1cc(C)nc2c(C)c(C)cc(N)c12 : 52.6
c1cncc(CNc2c3ccccc3nc3ccccc23)c1 : 28.6
Cc1ccc2nc(C)cc(Nc3ccccc3)c2c1 : 52.3
COc1ccc2nc(C)cc(Nc3ccc(OCc4ccccc4Cl)cc3)c2c1 : 26.1
Cc1ccc(Nc2cc(C)nc3c2ccc2ccccc23)cc1 : 73
CC(=O)c1cccc(Nc2cc(C)nc3c(C)cc(C)cc23)c1 : 25.6
CCOc1ccc2nc(C)cc(Nc3ccc(OC)c(OC)c3)c2c1 : 27.8
CCOc1ccc2nc(C)cc(Nc3ccc(Br)cc3)c2c1 : 28.8
Cc1cccc(Nc2c3c(nc4ccccc24)CCC3)c1 : 28.8
CCOC(=O)c1cnc2c(C)cccc2c1NCc1ccco1 : 49.1
CCOC(=O)c1cnc2ccc(OCC)cc2c1Nc1ccccc1CC : 61.9
CCc1ccccc1Nc1cc(C)nc2c(OC)cccc12 : 57.9
CCOc1ccc2nc(C)cc(Nc3ccc(N(C)C)cc3)c2c1 : 31
CCOC(=O)c1cnc2c(OC)cccc2c1NC(C)c1ccccc1 (centres unmarked) : 49.3
CCOC(=O)c1cnc2c(ccc3ccccc32)c1NCc1ccco1 : 41.6
Cc1cc(Nc2cccc(C(F)(F)F)c2)c2cc(Cl)ccc2n1 : 60
Cc1ccc(Nc2cc(C)nc3ccc(C)cc23)cc1 : 35.2
CCOC(=O)c1cnc2ccccc2c1NCc1ccco1 : 55.4
CCOC(=O)c1ccc2ncc(C(=O)OCC)c(NCCCOC(=O)C(Cl)(Cl)Cl)c2c1 : 60.5
Cc1ccc2nc3c(c(Nc4ccccc4)c2c1)CCC3 : 50.7
CCOC(=O)c1cnc2ccc(OC)cc2c1NCc1ccco1 : 22.1
CCOC(=O)c1cnc2c(OC)cccc2c1NCCCO : 45.8
CCOC(=O)c1cnc2c(OC)cccc2c1NCc1cccnc1 : 51

* * *

# assayName: in vitro
# conditionDetails: RSV CC50
propertyMeasured: CC50 (µM)

c1ccc2cc(Nc3c4ccccc4nc4ccccc34)ccc2c1 [Compound 1] : 47.6
CCOC(=O)c1cnc2c(Cl)c(Cl)ccc2c1NCc1ccco1 [Compound 19] : 20.9
CCOC(=O)c1cnc2c(OC)cccc2c1NC(C)c1ccccc1 (stereo not shown) [Compound 71] : 49.3
CCOC(=O)c1cnc2c(OC)cccc2c1NCCCO [Compound 70] : 45.8
c1coc(CNc2c3c(nc4ccccc24)CCC3)c1 [Compound 10] : 58.5
CCOC(=O)c1cnc2ccc(OC)cc2c1NCc1ccco1 [Compound 29] : 22.1
CCOC(=O)c1cnc2c(C)cc(C)cc2c1NCCCN(C)C [Compound 75] : 23.4
Cc1ccc(Nc2cc(C)nc3c2ccc2ccccc23)cc1 [Compound 9] : 73

* * *

# Test system: EBOV minigenome
# assayName: microbe, parasite or virus in culture
# Assay type: cell-based, Ebola virus
# conditionDetails: Zaire ebolavirus, 24 h, read-out: EBOV Inh
Reported inhibition at 25 µM by item:
propertyMeasured: inhibition at 25 µM (%)

Cc1ccc(Nc2c3c(nc4ccc(C)cc24)CCC3)cc1 : 19.2
Cc1ccc(Nc2cc(C)nc3ccc(C)cc23)cc1 : 42.7
Cc1ccc2nc(C)cc(N3CCC(C)CC3)c2c1 : 49.2
CCOc1ccc2nc(C)cc(Nc3ccc(Br)cc3)c2c1 : 95.2
Cc1cc(C)c2nc(C)cc(NCc3ccco3)c2c1 : 38.4
CCOC(=O)c1cnc2c(OC)cccc2c1NCc1ccco1 : 86.6
CCOC(=O)c1cnc2ccc(OC)cc2c1NCc1ccco1 : 86.4
CCOC(=O)c1cnc2c(C)cccc2c1NCc1ccco1 : 90
COc1ccc2nc(C)cc(Nc3ccc(OCc4ccccc4Cl)cc3)c2c1 : 98.7
CCc1ccccc1Nc1cc(C)nc2c(OC)cccc12 : 35.3
C=CCNc1c2c(nc3ccccc13)CCC2 : 49.8
CCOC(=O)c1cnc2ccc(C)cc2c1Nc1ccc(N2CCOCC2)cc1 : -36.4
CCOc1ccc2nc(C)cc(Nc3ccc(N(C)C)cc3)c2c1 : 70.8
CCOC(=O)c1cnc2ccc(F)cc2c1NCCCN(C)C : 84.1
CCOC(=O)c1cnc2c(OC)cccc2c1NC(C)c1ccccc1 (stereo not drawn) : 90.1
CCOc1ccc2nc(C)cc(Nc3ccc(OCc4ccccc4Cl)cc3)c2c1 : 99.5
COc1ccc(Nc2cc(C)nc3ccccc23)cc1 : 21
COC(=O)c1ccc(Nc2cc(C)nc3cc(Cl)ccc23)cc1 : -19.5
CCOC(=O)c1cnc2c(OC)cccc2c1NCc1ccccc1 : 97.4
CCOC(=O)c1cnc2ccccc2c1NCc1ccco1 : 71
CCOC(=O)c1cnc2c(OC)cccc2c1NCC(C)O (stereo not drawn) : 64.4

* * *

Reported inhibition at 25 µM by item:
# Test system: EBOV minigenome
# assayName: microbe, parasite or virus in culture
# Assay type: cell-based, Ebola virus
# conditionDetails: Zaire ebolavirus, 24 h, read-out: EBOV Inh
propertyMeasured: inhibition at 25 µM (%)

Cc1cccc(Nc2c3c(nc4ccccc24)CCC3)c1 : 62.7
COc1ccc2nc(C)cc(Nc3ccc(I)cc3)c2c1 : 93.9
CCOC(=O)c1cnc2c(OC)cccc2c1NCCCO : 74.7
Cc1ccc(Nc2cc(C)nc3c2ccc2ccccc23)cc1 : -17.1
CCOC(=O)c1cnc2c(C(F)(F)F)cccc2c1Nc1ccc(S(=O)(=O)Nc2nc(C)cc(C)n2)cc1 : 86
CCc1ccccc1Nc1c2ccccc2nc2ccccc12 : 20.1
CCOC(=O)c1cnc2c(Cl)cc(Cl)cc2c1NCc1ccco1 : 76.9
Cc1cc(Nc2cccc(C(F)(F)F)c2)c2cc(Cl)ccc2n1 : 26.3
CC(=O)c1cccc(Nc2cc(C)nc3c(C)cc(C)cc23)c1 : 29.4
Cc1ccc2nc3c(c(Nc4ccccc4)c2c1)CCC3 : -4.87
CCOC(=O)c1ccc2ncc(C(=O)OCC)c(NCc3ccco3)c2c1 : 59
COc1ccc(Nc2cc(C)nc3c2ccc2ccccc23)cc1 : 85.3
Cc1cc(NNC(=O)OCc2ccccc2)c2ccccc2n1 : 42.3
CCOC(=O)c1cnc2c(Cl)c(Cl)ccc2c1NCc1ccco1 : 0.97
Cc1ccc2nc(C)cc(Nc3ccccc3)c2c1 : -44.2
CCOC(=O)c1cnc2ccc(F)cc2c1Nc1ccc(S(=O)(=O)Nc2nc(C)cc(C)n2)cc1 : 76.1
CCOC(=O)c1cnc2ccc(C)cc2c1NCc1ccco1 : 64.1
CCCOC(=O)c1ccc(Nc2cc(C)nc3ccc(C(=O)OCC)cc23)cc1 : 92
CCOC(=O)c1cnc2ccc(OCC)cc2c1NCc1ccco1 : 15.5
CCOc1ccc2nc(C)cc(Nc3ccc(Cl)cc3)c2c1 : 92.2

* * *

# assayName: in vitro
# conditionDetails: EBOV CC50
Reported CC50 by item:
propertyMeasured: CC50 (µM)

COc1ccc2nc(C)cc(Nc3ccc(I)cc3)c2c1 : 35.5
C=CCNc1c2c(nc3ccccc13)CCC2 : 71.7
CCOC(=O)c1cnc2c(C)cc(C)cc2c1NCCCN(C)C : 23.4
CCOC(=O)c1ccc2nc(C)cc(Nc3ccc(C)cc3C)c2c1 : 56.1
Cc1cc(C)c2nc(C)cc(Nc3ccc(OCc4ccccc4)cc3)c2c1 : 27.4
CCOC(=O)c1cnc2c(ccc3ccccc32)c1NCc1ccco1 : 41.6
CCCOC(=O)c1ccc(Nc2cc(C)nc3ccc(C(=O)OCC)cc23)cc1 : 70.1
CCOC(=O)c1cnc2ccc(OCC)cc2c1Nc1ccccc1CC : 61.9
Cc1cc(C)c2nc(C)cc(Nc3ccc(Cl)c(Cl)c3)c2c1 : 49.1

* * *

Reported pEC50 by item:
# Tested on: WNV (WN-hRuPac cells)
# assayName: WNV antiviral activity, WN-hRuPac cells, Renilla luciferase
# Format: cell-based, West Nile virus
# conditionDetails: West Nile virus; Secondary Data; WNV; read-out: WNV EC50
pEC50: −log10 of the molar value.
propertyMeasured: pEC50

CC(=O)c1cccc(Nc2cc(C)nc3c(C)cc(C)cc23)c1 [Compound 48] : 4.67
Cc1cc(C)c2nc(C)cc(NCc3ccco3)c2c1 [Compound 54] : 5.16
CCOc1ccc2nc(C)cc(Nc3ccc(Br)cc3)c2c1 [Compound 41] : 5.13
CCOC(=O)c1cnc2c(Cl)cccc2c1NCc1ccco1 [Compound 55] : 4.89
CCOC(=O)c1cnc2c(Cl)c(Cl)ccc2c1NCc1ccco1 [Compound 19] : 5.40
CCCOC(=O)c1ccc(Nc2cc(C)nc3ccc(C(=O)OCC)cc23)cc1 [Compound 63] : 4.36
Cc1ccc2nc3c(c(Nc4ccc(N5CCOCC5)cc4)c2c1)CCC3 [Compound 21] : 5.02
Cc1ccc(Nc2cc(C)nc3c2ccc2ccccc23)cc1 [Compound 9] : 4.51
Cc1cc(C)c2nc(C)cc(Nc3ccc(OCc4ccccc4)cc3)c2c1 [Compound 44] : 5.37
